Items are presented alongside their recorded Kd.
Target: T1, human Trop-2-His protein (human, UniProt P09758 27-274)
T1 construct: extracellular domain; Assay paragraphs say only 'Trop-2-His'; also called hTrop-2; Kactus Cat #TRP-HM121; not shown: His tag
T1 sequence (looked up): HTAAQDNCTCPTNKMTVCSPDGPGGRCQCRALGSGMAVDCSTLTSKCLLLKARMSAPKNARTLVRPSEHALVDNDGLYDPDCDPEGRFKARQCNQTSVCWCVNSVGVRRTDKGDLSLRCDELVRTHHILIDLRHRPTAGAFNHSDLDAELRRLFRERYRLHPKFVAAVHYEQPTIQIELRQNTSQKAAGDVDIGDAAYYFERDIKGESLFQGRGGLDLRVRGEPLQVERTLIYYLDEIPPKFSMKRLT
Assay: BLI (Gator Prime), LEM supernatant Ab on HFC probe
Reply numerically in nM, unit not repeated.

// known answers, use as guide
62E3 (antibody, V domains shown, Rabbit-derived clone; LEM construct: VH + rabbit IgG CH1 + human IgG1 CH2-CH3) VH: QEQLKESGGGLVQPGGSLKLSCKASGFDFNEYGVSWVRQAPGKGLEWIAYIYPAFHNTYYATWVNGRFTISSHNAQNTLYLQLNTLTAADTATYFCARDAGTTDYNFNLWGPGTLVTVSS VL: DVVMTQTASPVSAAVGGTVTIKCQASEDIESYLAWYQQKPGQPPKLLIYEASKLASGVSSRFSGSGYGTEFTLTISGVECADAATYYCQQALTIGNVDNPFGGGSEVVVK : 0.623
1D10 (antibody, V domains shown, Rabbit-derived clone; LEM construct: VH + rabbit IgG CH1 + human IgG1 CH2-CH3) VH: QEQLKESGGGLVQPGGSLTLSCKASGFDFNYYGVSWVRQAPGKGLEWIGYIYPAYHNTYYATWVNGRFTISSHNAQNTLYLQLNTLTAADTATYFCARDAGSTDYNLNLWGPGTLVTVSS VL: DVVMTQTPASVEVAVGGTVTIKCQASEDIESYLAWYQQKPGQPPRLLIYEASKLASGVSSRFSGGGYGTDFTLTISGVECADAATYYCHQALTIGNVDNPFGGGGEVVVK : 0.53
3E9 (antibody, V domains shown, Rabbit-derived clone; LEM construct: VH + rabbit IgG CH1 + human IgG1 CH2-CH3) VH: QEQLKESGGGLVQPGGSLKLSCKASGFDFNNYGVSWVRQAPGKGLEWIAYIYPAFHNRYYANWVNGRFTISSDNAQNTVYLQLNSLTAADTATYFCARDAGSTDYKFNLWGPGTLVTVSS VL: DVVMTQTPASVSAAVGGTVTIKCQASEDIESYLAWYQQKPGQPPKLLIYDASTLASGVSSRFSGSGYGTEFTLTISGVECADAATYYCQQDLTVGNVDNPFGGGSEVVVE : 0.675

### Prompt Quick check: Kd of 8H2 (antibody, V domains shown, Rabbit-derived clone; LEM construct: VH + rabbit IgG CH1 + human IgG1 CH2-CH3) VH: QSLEESGGDLVQPGASLTLTCKASGFDLNNYAMLWVRQAPGKGLEWIGCIYISGGTTYFASWATGRFAISKTSSTTVTLQMTSLTAADTATYFCARDDGSTSYYLNLWGPGTLVTVSS VL: YDMTQTPASVSAAVGGTVTIKCQASEDIYSLLAWYQQKPGQPPKLLIYDASDLASGVPSRFKGSGSGTEYTLTISALECDDAATYYCQQAYTIGNIDNTFGGGTEVVVK ?
### Response 0.227

### Prompt Look up Kd for this binder: 73C2 (antibody, V domains shown, Rabbit-derived clone; LEM construct: VH + rabbit IgG CH1 + human IgG1 CH2-CH3) VH: QSLEESGGGLVKPGGTLTLTCTVSGFDFSNYAVTWVRQAPGEGLEYIGFVGIYGDFYYANWAKGRFTISKTSSTTVTLQMPSLTVADTATYFCARGGLWTGNSYFDLWGPGTLVTVSS VL: YDMTQTPASVEVAVGGTVTINCQASESINRYLAWYQQKRGQPPKPLIYRAATLASGVPSRFKGSGSGTEYTLTISDLECADAATYYCQQGYGYSTVGNAFGGGTEVVVK
### Response 3.85
